Listing of entries alongside the reported pEC50.
Target Under Test: zebrafish PXR (Danio rerio, UniProt A5WYG8)
Sequence (A5WYG8 144-430): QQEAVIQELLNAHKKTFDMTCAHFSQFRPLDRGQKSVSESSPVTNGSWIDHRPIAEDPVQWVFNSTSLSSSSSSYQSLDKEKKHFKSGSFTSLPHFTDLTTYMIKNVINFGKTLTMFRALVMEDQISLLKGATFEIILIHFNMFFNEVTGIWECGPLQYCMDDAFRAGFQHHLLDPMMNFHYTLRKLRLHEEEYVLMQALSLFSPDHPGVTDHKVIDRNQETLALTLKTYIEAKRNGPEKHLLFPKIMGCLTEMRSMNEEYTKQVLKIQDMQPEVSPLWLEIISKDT
Test Name: cell-based
Field pEC50 (float): negative decimal logarithm of the concentration in molar.

Please review the following examples before continuing.
1. C[C@]12CCC(=O)C[C@@H]1CC[C@@H]1[C@@H]2CC[C@]2(C)C=CC[C@@H]12 :: 5.58
2. CCCCOC(=O)c1ccc(N)cc1 [MI4, n-Butyl-4-aminobenzoate] :: 4.86
3. C[C@@]12CCC[C@H]1[C@@H]1CC[C@@H]3C[C@H](O)CC[C@]3(C)[C@H]1CC2 :: 5.59
4. CC(CCCC(CO)COS(=O)(=O)O)[C@H]1CCC2C3C(C[C@H](O)[C@@]21C)[C@@]1(C)CC[C@@H](O)C[C@@H]1C[C@H]3O (some centres unmarked) :: 4.36
5. C[C@]12CC[C@H](O)C[C@@H]1CC[C@@H]1[C@@H]2CC[C@]2(C)C=CC[C@@H]12 :: 5.48
6. C[C@@]12CCC[C@H]1[C@@H]1CC[C@H]3C[C@H](O)CC[C@]3(C)[C@H]1CC2 :: 5.34

So what does the record say about pEC50 for C[C@@]12CCC[C@H]1[C@@H]1CC[C@H]3C[C@@H](O)CC[C@]3(C)[C@H]1CC2 ?
5.57

So what does the record say about pEC50 for CCCOC(=O)c1ccc(O)cc1 [MI27, n-Propyl-4-hydroxybenzoate] ?
4.28

* * *

Target Under Test: rabbit PXR (Oryctolagus cuniculus)
Sequence (Q9TU02 1-411): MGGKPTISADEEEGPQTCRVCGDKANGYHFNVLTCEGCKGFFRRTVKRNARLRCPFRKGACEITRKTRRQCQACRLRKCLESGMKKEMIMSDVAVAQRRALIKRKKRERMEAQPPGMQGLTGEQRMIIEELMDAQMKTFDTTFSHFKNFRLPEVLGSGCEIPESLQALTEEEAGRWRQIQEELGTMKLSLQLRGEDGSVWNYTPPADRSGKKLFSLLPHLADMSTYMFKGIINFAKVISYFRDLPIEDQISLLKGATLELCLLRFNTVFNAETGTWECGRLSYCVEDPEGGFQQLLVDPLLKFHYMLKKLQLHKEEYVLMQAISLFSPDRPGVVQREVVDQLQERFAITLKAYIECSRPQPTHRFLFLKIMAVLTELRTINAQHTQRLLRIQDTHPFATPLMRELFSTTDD
Test Name: PXR activation luciferase reporter assay, rabbit PXR
Applied Conditions: relative to 50 μM 5α-pregnan-3,20-dione, assigned an efficacy of 1.0
# binarize Rabbit PXR efficacy, ε: threshold 0.4 inclusive, high side True, low side False

Please review the entries below; each comes with its answer.
1) C[C@H](CCC(=O)NCCS(=O)(=O)O)[C@H]1CC[C@H]2[C@@H]3CC[C@@H]4C[C@H](O)CC[C@]4(C)[C@H]3C[C@H](O)[C@]12C :: False
2) CC(C)CCC[C@@H](C)[C@H]1CC[C@H]2[C@@H]3[C@H](O)C[C@@H]4C[C@H](O)CC[C@]4(C)[C@H]3C[C@H](O)[C@]12C :: False
3) C[C@H](CCC(=O)O)[C@H]1CC[C@H]2[C@@H]3C(=O)C[C@@H]4C[C@H](O)CC[C@]4(C)[C@H]3C[C@H](O)[C@]12C :: True

Is Rabbit PXR efficacy, ε for C[C@H](CCC(=O)O)[C@H]1CC[C@H]2[C@@H]3CC[C@@H]4C[C@H](O)CC[C@]4(C)[C@H]3C[C@H](O)[C@]12C at or above 0.4?
False

Is Rabbit PXR efficacy, ε for CC(CCCC(CO)COS(=O)(=O)O)[C@H]1CCC2C3C(C[C@H](O)[C@@]21C)[C@@]1(C)CC[C@@H](O)C[C@@H]1C[C@H]3O (stereo partly drawn) at or above 0.4?
True

* * *

System: HepG2 cells
Applied Conditions: human, 24 hr
Listing of entries alongside the reported Toxicity.
Your answer should be a plain number; it is taken to be in µM.

Please review the following examples before continuing.
1. NC(=O)N1c2ccccc2C=Cc2ccccc21 [MI7, Carbamazepine] :: 200
2. Cc1c(C)c2c(c(C)c1O)CC[C@@](C)(CCC[C@H](C)CCC[C@H](C)CCCC(C)C)O2 :: 100
3. C[C@]12CC[C@@H]3c4ccc(O)cc4CC[C@H]3[C@@H]1CC[C@@H]2O :: 200

Let us move to another entry and its Toxicity.
So what does the record say about Toxicity for C=C1/C(=C\C=C2/CCC[C@]3(C)[C@@H]([C@H](C)CCCC(C)(C)O)CC[C@@H]23)C[C@@H](O)C[C@@H]1O [MI41, 1α,25-Dihydroxyvitamin D3] ?
50

* * *

Target Under Test: chicken PXR (Gallus gallus)
Sequence (Q9DFH3 1-391): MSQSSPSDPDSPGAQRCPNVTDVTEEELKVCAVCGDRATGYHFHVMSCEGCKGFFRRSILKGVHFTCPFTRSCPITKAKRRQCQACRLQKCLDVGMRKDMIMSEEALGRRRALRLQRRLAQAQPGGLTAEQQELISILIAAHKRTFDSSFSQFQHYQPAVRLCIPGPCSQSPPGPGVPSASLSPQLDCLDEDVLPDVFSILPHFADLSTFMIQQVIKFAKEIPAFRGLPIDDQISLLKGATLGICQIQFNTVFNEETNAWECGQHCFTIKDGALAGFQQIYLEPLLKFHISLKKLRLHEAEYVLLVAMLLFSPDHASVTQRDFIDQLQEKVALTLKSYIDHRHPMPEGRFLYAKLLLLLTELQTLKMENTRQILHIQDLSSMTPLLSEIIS
Applied Conditions: chicken
Listing of entries alongside the reported Chicken PXR efficacy, ε.
Please give only the number in your answer, with no unit.

1. CC(CCCC(CO)COS(=O)(=O)O)[C@H]1CCC2C3C(C[C@H](O)[C@@]21C)[C@@]1(C)CC[C@@H](O)C[C@@H]1C[C@H]3O (stereo partly drawn) :: 0.61

Let us move to another entry and its Chicken PXR efficacy, ε.
So what does the record say about Chicken PXR efficacy, ε for CC(CCC(=O)NCC(=O)O)C1CCC2C3C(O)CC4CC(O)CCC4(C)C3CCC12C (stereo not drawn) ?
0.41

* * *

Listing of entries alongside the reported zfPXR Efficacy.
Target Under Test: zebrafish PXR (Danio rerio)
Applied Conditions: relative to 20 μM 5α-androstan-3α-ol, assigned an efficacy of 1.0
Please give only the number in your answer, with no unit.

1) C[C@H](O)[C@H]1CC[C@H]2[C@@H]3CC[C@@H]4C[C@H](O[C@@H]5O[C@H](C(=O)O)[C@@H](O)[C@H](O)[C@H]5O)CC[C@]4(C)[C@H]3CC[C@]12C [PR16, 5β-Pregnan-3α,20α-diol-3-glucosiduronate] :: 1.42
2) C#C[C@]1(O)CC[C@H]2[C@@H]3CCC4=CC(=O)CC[C@@H]4[C@H]3CC[C@@]21CC :: 0.86
3) C[C@]12CC[C@@H](O)C[C@@H]1CC[C@@H]1[C@@H]2CC[C@]2(C)C=CC[C@@H]12 :: 1.02
4) C[C@@H](O)[C@H]1CC[C@H]2[C@@H]3CC[C@@H]4C[C@H](O)CC[C@]4(C)[C@H]3CC[C@]12C :: 0.25

Let us move to another entry and its zfPXR Efficacy.
# query: zfPXR Efficacy | item C[C@]12CCC(=O)C[C@@H]1CC[C@@H]1[C@@H]2CC[C@]2(C)[C@@H](O)CC[C@@H]12 | system: zebrafish PXR (Danio rerio)
0.59

* * *

Target Under Test: rabbit PXR (Oryctolagus cuniculus)
Test Name: PXR activation luciferase reporter assay, rabbit PXR
Applied Conditions: -log(EC50), EC50 in molar units
Listing of entries alongside the reported Rabbit PXR Activity.
Please give only the number in your answer, with no unit.

1. C[C@H](CCC(=O)O)[C@H]1CC[C@H]2[C@@H]3C(=O)C[C@@H]4C[C@H](O)CC[C@]4(C)[C@H]3C[C@H](O)[C@]12C [BI042, 5β-Cholanic acid-3α,12α-diol-7-one] :: 4.31

# query: Rabbit PXR Activity | item C[C@H](CCC(O)C(CO)COS(=O)(=O)O)[C@H]1CC[C@H]2[C@@H]3[C@H](O)C[C@@H]4C[C@H](O)CC[C@]4(C)[C@H]3C[C@H](O)[C@]12C (stereo partly drawn) [BI034] | system: rabbit PXR (Oryctolagus cuniculus)
4.09

* * *

# Toxicity measurements, system: HepG2 cells

Please review the following examples before continuing.
1) C/C=C1\C(=O)C[C@H]2[C@@H]3CCC4=CC(=O)CC[C@]4(C)[C@H]3CC[C@]12C :: None
2) CC(=O)[C@H]1CC[C@H]2[C@@H]3CC[C@@H]4CC(=O)CC[C@]4(C)[C@H]3CC[C@]12C :: None
3) C[C@H]([C@H](O)CCC(C)(C)O)[C@H]1CC[C@@]2(O)C3=CC(=O)[C@@H]4C[C@@H](O)[C@@H](O)C[C@]4(C)[C@H]3CC[C@]12C :: None
4) CC(C(=O)O)c1ccc(-c2ccccc2)c(F)c1 (stereo not drawn) :: None
5) CC(=O)[C@H]1CC[C@H]2[C@@H]3CC=C4C[C@@H](O)CC[C@]4(C)[C@H]3CC[C@]12C :: None

Let us move to another entry and its Toxicity.
# query: Toxicity | item CC(=O)[C@H]1CC[C@H]2[C@@H]3CC[C@@H]4C[C@H](O)CC[C@]4(C)[C@H]3CC[C@]12C | system: HepG2 cells
100 µM

* * *

Target Under Test: mouse PXR (Mus musculus)
Sequence (O54915 1-431): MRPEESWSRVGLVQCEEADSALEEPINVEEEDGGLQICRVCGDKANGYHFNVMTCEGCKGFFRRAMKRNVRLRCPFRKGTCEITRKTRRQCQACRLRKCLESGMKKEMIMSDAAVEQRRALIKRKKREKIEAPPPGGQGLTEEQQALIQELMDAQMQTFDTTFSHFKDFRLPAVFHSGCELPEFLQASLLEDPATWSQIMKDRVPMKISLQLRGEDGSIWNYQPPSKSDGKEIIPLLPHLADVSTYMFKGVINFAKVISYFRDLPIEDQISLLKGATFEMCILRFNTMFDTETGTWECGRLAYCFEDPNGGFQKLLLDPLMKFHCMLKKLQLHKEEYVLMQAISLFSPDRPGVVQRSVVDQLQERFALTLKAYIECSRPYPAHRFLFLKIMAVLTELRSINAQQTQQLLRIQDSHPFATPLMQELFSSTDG
Test Name: cell-based
Listing of entries alongside the reported EC50.
Your answer should be a plain number; it is taken to be in µM.

1. C[C@H](CCC(=O)NCCS(=O)(=O)O)[C@H]1CC[C@H]2[C@@H]3[C@H](O)C[C@@H]4C[C@H](O)CC[C@]4(C)[C@H]3C[C@H](O)[C@]12C [BI022, Taurocholic acid] :: 85.1
2. Clc1cc2c(cc1Cl)Oc1cc(Cl)c(Cl)cc1O2 [MI34, 2,3,7,8-tetrachlorodibenzo-p-dioxin] :: 0.1
3. CC(C)CCC[C@@H](C)[C@H]1CC[C@H]2[C@@H]3[C@H](O)C[C@@H]4C[C@H](O)CC[C@]4(C)[C@H]3C[C@H](O)[C@]12C [BI023, 5β-Cholestan-3α,7α,12α-triol] :: 1.41

So what does the record say about EC50 for CC(=O)[C@H]1CC[C@H]2[C@@H]3CC[C@@H]4CC(=O)CC[C@]4(C)[C@H]3CC[C@]12C [PR2, 5β-Pregnan-3,20-dione] ?
4.37

So what does the record say about EC50 for CC(CCCC(CO)COS(=O)(=O)O)[C@H]1CCC2C3C(C[C@H](O)[C@@]21C)[C@@]1(C)CC[C@@H](O)C[C@@H]1C[C@H]3O (some centres unmarked) [BI036] ?
16.6
